Target: UniProt:Q06187
Assay: TR-FRET competition binding assay, BTK-Btn with tracer TR 178 (low tracer / low kinase)
Set-up: 6xHis (N); made in house; host or cells: Sf-9 insect cells (baculovirus)
Settings: 0.05 nM BTK-Btn and 0.5 nM TR 178
Field: Low kinase nH. Provide a value for each of the compounds that follow.
Numbers only.

Here is how some compounds turned out for Low kinase nH.
N#CC(C#N)=Cc1cc(O)c(O)c(O)c1; 0.8
Nc1ncnc2c1ncn2[C@@H]1O[C@H](COP(=O)(O)OP(=O)(O)O)[C@@H](O)[C@H]1O; 0.9
CC(C)(C)n1nc(-c2ccc(Cl)cc2)c2c(N)ncnc21; 1.8

Now take the following compound into account.
Lookup: Bench note: what Low kinase nH did CC(O)=C(C#N)C(=O)Nc1cc(Br)ccc1Br show?
Found: 1.3

* * *

Field: Enzyme nH (hill slope of dose response curve). Provide a value for each of the compounds that follow.
Molecular target: BTK (Homo sapiens, UniProt Q06187)
Construct: mixed with 26 μL of purified full length BTK (final concentration of 5 nM); purchased Invitrogen (Carlsbad, Calif.)
Sequence (Q06187 whole entry): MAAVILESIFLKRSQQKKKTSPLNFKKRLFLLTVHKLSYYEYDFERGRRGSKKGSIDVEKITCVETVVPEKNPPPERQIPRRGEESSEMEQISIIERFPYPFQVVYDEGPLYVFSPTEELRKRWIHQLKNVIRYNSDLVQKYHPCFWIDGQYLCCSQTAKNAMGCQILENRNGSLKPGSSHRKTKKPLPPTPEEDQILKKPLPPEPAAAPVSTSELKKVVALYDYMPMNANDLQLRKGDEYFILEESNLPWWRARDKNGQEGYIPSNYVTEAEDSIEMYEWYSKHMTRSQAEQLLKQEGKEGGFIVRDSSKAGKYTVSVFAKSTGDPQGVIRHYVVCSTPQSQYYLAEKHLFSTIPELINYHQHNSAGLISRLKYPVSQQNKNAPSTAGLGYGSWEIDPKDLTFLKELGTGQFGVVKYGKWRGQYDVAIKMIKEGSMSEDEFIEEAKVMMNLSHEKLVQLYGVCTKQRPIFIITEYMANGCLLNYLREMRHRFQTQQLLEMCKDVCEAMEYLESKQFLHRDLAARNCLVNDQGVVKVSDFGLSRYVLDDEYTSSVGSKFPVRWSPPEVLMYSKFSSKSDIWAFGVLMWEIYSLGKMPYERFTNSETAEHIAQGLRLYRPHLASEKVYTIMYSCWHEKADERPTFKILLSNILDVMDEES
Experiment: Enzymatic assay for BTK (Caliper, peptide substrate)
Format: biochemical
Conditions: 5 nM BTK, 100 μM ATP
Numbers only.

I'm hoping you can list Enzyme nH (hill slope of dose response curve) for every compound here, please.
1. CC(O)=C(C#N)C(=O)Nc1cc(Br)ccc1Br
2. CC(C)(C)n1nc(-c2ccc(Cl)cc2)c2c(N)ncnc21

Found:
[1.1, 1.1]

I'm hoping you can list Enzyme nH (hill slope of dose response curve) for every compound here, please.
1. Nc1ncnc2c1ncn2[C@@H]1O[C@H](COP(=O)(O)OP(=O)(O)O)[C@@H](O)[C@H]1O
2. N#CC(C#N)=Cc1cc(O)c(O)c(O)c1

Found:
[1.0, 0.6]

* * *

Target: BTK-Btn (Homo sapiens, UniProt Q06187)
Sequence (Q06187 whole entry): as above
Assay: TR-FRET competition binding assay, BTK-Btn with tracer TR 178 (low tracer / low kinase)
Parameters: 6xHis (N); made in house; host or cells: Sf-9 insect cells (baculovirus)
Conditions: 0.05 nM TR 178 and 0.5 nM BTK-Btn
Field: Low tracer nH. Provide a value for each of the molecules that follow.
Answers are plain numbers.

Here is how some molecules turned out for Low tracer nH.
CC(C)(C)n1nc(-c2ccc(Cl)cc2)c2c(N)ncnc21; 0.9
N#CC(C#N)=Cc1cc(O)c(O)c(O)c1; 0.6
Nc1ncnc2c1ncn2[C@@H]1O[C@H](COP(=O)(O)OP(=O)(O)O)[C@@H](O)[C@H]1O; 0.7

Now take the following molecule into account.
Lookup: Bench note: what Low tracer nH did CC(O)=C(C#N)C(=O)Nc1cc(Br)ccc1Br show?
Found: 0.6

* * *

Field: IC50. Provide a value for each of the molecules that follow.
Molecular target: BTK-Btn (Homo sapiens)
Assay: TR-FRET competition binding assay, BTK-Btn with tracer AF647-staur
Conditions: read-out: FRET IC50, 0.5 nM BTK-Btn, 0.5 nM Eu-strept

Nc1ncnc2c1ncn2[C@@H]1O[C@H](COP(=O)(O)OP(=O)(O)O)[C@@H](O)[C@H]1O; 46 µM

Now take the following molecule into account.
Lookup: Bench note: what IC50 did N#CC(C#N)=Cc1cc(O)c(O)c(O)c1 show?
Found: 48 µM

* * *

Target: BTK-Btn (Homo sapiens)
Assay: TR-FRET competition binding assay, BTK-Btn with tracer TR 178 (low tracer / low kinase)
Design: 6xHis (N); made in house; host or cells: Sf-9 insect cells (baculovirus)
Conditions: 0.05 nM TR 178 and 0.5 nM BTK-Btn; read-out: Low tracer IC50
Measurement Kind: IC50 (µM)
One number for each entry, in µM.

N#CC(C#N)=Cc1cc(O)c(O)c(O)c1; 45

Now take the following compound into account.
Lookup: Bench note: what IC50 did Nc1ncnc2c1ncn2[C@@H]1O[C@H](COP(=O)(O)OP(=O)(O)O)[C@@H](O)[C@H]1O show?
Found: 40

* * *

Field: IC50. Provide a value for each of the compounds that follow.
Biological target: BTK-Btn (Homo sapiens, UniProt Q06187)
Test: TR-FRET competition binding assay, BTK-Btn with tracer TR 178 (low tracer / low kinase)
Parameters: 6xHis (N); made in house; host or cells: Sf-9 insect cells (baculovirus)
Conditions: 0.05 nM BTK-Btn and 0.5 nM TR 178; read-out: Low kinase IC50
Give bare numbers, in µM.

N#CC(C#N)=Cc1cc(O)c(O)c(O)c1; 130

Now take the following compound into account.
Lookup: Bench note: what IC50 did Nc1ncnc2c1ncn2[C@@H]1O[C@H](COP(=O)(O)OP(=O)(O)O)[C@@H](O)[C@H]1O show?
Found: 200

* * *

# IC50 measurements, system: BTK (Homo sapiens, UniProt Q06187)

Nc1ncnc2c1ncn2[C@@H]1O[C@H](COP(=O)(O)OP(=O)(O)O)[C@@H](O)[C@H]1O; > 100 µM

Lookup: Bench note: what IC50 did N#CC(C#N)=Cc1cc(O)c(O)c(O)c1 show?
Found: > 100 µM
